measurement_protocol: S. cerevisiae RM11-1a growth modifiers, primary screen, strain RM11-1a, OD600, basal, 24 h (AID 1177);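 also: cultures grown under basal conditions with no added stressor; test concentration not given here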
condition_summary: OD600, 24 h, higher = more signal, called active from +8 up or from −8 down
Activity calls are given as the source filed them.

[
  {
    "compound": "NC(=O)NCC#Cc1ccc2c(c1)[C@]1(C(=O)N2)[C@H](C(N)=O)[C@H]2C(=O)O[C@H](c3ccccc3)[C@H](c3ccccc3)N2[C@@H]1c1ccc(O)cc1",
    "z-score": "-0.732 (inactive)"
  },
  {
    "compound": "COc1ccc(CCNC(=O)[C@@H]2c3ccccc3C(=O)N(Cc3ccccc3Cl)[C@H]2c2ccc(CO)cc2)cc1",
    "z-score": "0.394 (inactive)"
  },
  {
    "compound": "CCCCC(CC)C(O)C1C=CC2C(=O)N(Cc3ccccc3)C(=O)C2N1n1cnnc1 (stereo unspecified)",
    "z-score": "-0.666 (inactive)"
  },
  {
    "compound": "C=CCOC(=O)[C@H]1[C@@H]2C(=O)O[C@@H](c3ccccc3)[C@@H](c3ccccc3)N2[C@@H](c2ccc(OCCOC(=O)[C@H]3C[C@H]4C(=O)N[C@@H](CCCCN(C)C)C(=O)N4[C@H]3c3ccc(O)cc3)cc2)[C@]12C(=O)Nc1ccc(I)cc12",
    "z-score": "-0.0228 (inactive)"
  },
  {
    "compound": "CCOC(=O)C[C@H]1[C@H](OC(=O)c2cc3ccccc3oc2=O)[C@@H](NC(=O)c2ccccc2)c2cc(OCCCO)ccc2N1C(=O)c1ccc2ccccc2n1",
    "z-score": "-0.5 (inactive)"
  },
  {
    "compound": "COCC(=C=CC[C@@H](O)c1cccc(OCCO)c1)C[C@@H](O)c1ccccn1",
    "z-score": "0.0156 (inactive)"
  }
]

----------
Let's look at some compounds and their measured composite z-score.
measured_target: Dihydroorotate dehydrogenase (quinone), mitochondrial (Plasmodium falciparum (isolate 3D7))
measurement_protocol: PfDHODH enzyme inhibitors, primary screen, biochemical, C-terminal His tag, absorbance 600 nm (AID 1175);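 also: recombinant parasite enzyme with a five histidine tag at its C terminus; test concentration not given here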
condition_summary: DCIP absorbance 600 nm, higher = more signal, called active from +8 up or from −8 down

[
  {
    "compound": "COCCOC(=O)N1C(=O)[C@@]2(c3ccccc31)[C@H](C(=O)N1CCc3cc(OC)c(OC)cc3C1)[C@H]1C(=O)O[C@H](c3ccccc3)[C@H](c3ccccc3)N1[C@@H]2c1ccc(OCCO)cc1",
    "composite z-score": -0.76
  },
  {
    "compound": "C=C(COC)C(=O)CC[C@@H](OC(C)=O)c1ccc(CO)o1",
    "composite z-score": -3.24
  },
  {
    "compound": "COC(=O)[C@@]1(CCC(=O)OC(C)(C)C)N=C(c2ccc(OCCCO)cc2)O[C@H]1c1ccccc1N=[N+]=[N-]",
    "composite z-score": 0.414
  },
  {
    "compound": "NC(=O)NCC#Cc1ccc2c(c1)[C@]1(C(=O)N2)[C@H](c2ccccc2OCCO)N2[C@H](c3ccccc3)[C@H](c3ccccc3)OC(=O)[C@H]2[C@@H]1C(=O)Nc1nc2ccccc2s1",
    "composite z-score": -1.12
  },
  {
    "compound": "C=C(/C(=C/C[C@H](OC(C)=O)c1ccccc1OCCO)c1cnc2ccccc2c1)C(C)C",
    "composite z-score": -5.2
  },
  {
    "compound": "O=C(c1ccccc1)N1Cc2ccccc2C[C@@]2(COC(c3ccc(OCCCO)cc3)=N2)C1=O",
    "composite z-score": 0.574
  },
  {
    "compound": "O=C1C[C@@](C(=O)NC2CC2)(c2ccc([N+](=O)[O-])cc2)[C@@H](c2ccc(CO)cc2I)N1C1CCCCC1",
    "composite z-score": -0.716
  },
  {
    "compound": "CC(=O)NCCCC[C@@H]1NC(=O)[C@H]2C[C@@H](C(=O)NCCCCCCNC(=O)CS)[C@@H](c3ccc(O)cc3)N2C1=O",
    "composite z-score": 0.761
  },
  {
    "compound": "[N-]=[N+]=NCc1ccccc1[C@@H]1OC(c2ccc(OCCCO)cc2)=N[C@]1(Cc1ccccc1)C(N)=O",
    "composite z-score": -0.717
  },
  {
    "compound": "COC(=O)[C@@]1(Cc2ccc(OC)cc2)[C@H]2c3cc(C(=O)N(C)C)n(Cc4ccc(S(C)(=O)=O)cc4)c3C[C@H]2CN1C(=O)c1ccccc1",
    "composite z-score": -1.4
  },
  {
    "compound": "CC1CC/C=C\\[C@H]2OC34C=CCN(C(C)(C)C)C(=O)[C@H]3N(CCO)C(=O)[C@@H]4C2C(=O)O1 (stereo partly specified)",
    "composite z-score": -0.0848
  },
  {
    "compound": "C=CCN1C(=O)[C@@]2(Cc3ccccc31)N=C(c1ccc(OCCCO)cc1)O[C@H]2c1ccccc1",
    "composite z-score": 0.161
  },
  {
    "compound": "CC(C)=CCN[C@H](CO)c1ccccc1",
    "composite z-score": -2.14
  },
  {
    "compound": "CCC(CC)C(O)C1C=CC2C(=O)NC(=O)C2N1Nc1ccc(Cl)cc1Cl (stereo unspecified)",
    "composite z-score": 0.925
  },
  {
    "compound": "CCOC(=O)C[C@H]1[C@H](OC(=O)c2ccc(-c3ccccc3)cc2)[C@@H](NC(=O)Cc2ccc(OC)cc2)c2cc(OCCCO)ccc2N1C(=O)c1ccccc1",
    "composite z-score": 0.11
  },
  {
    "compound": "COc1ccccc1CN1C(=O)c2ccccc2[C@@H](C(=O)NC2CC2)[C@@H]1c1ccc(CO)cc1",
    "composite z-score": -0.245
  }
]
